OD 405 nm reference
- experimental_target: preformed immune complex of peroxidase-rabbit anti-peroxidase IgG (PAP complex) (rabbit; horseradish) (UniProt P00433)
- Sequence (P00433 31-338, one chain of several): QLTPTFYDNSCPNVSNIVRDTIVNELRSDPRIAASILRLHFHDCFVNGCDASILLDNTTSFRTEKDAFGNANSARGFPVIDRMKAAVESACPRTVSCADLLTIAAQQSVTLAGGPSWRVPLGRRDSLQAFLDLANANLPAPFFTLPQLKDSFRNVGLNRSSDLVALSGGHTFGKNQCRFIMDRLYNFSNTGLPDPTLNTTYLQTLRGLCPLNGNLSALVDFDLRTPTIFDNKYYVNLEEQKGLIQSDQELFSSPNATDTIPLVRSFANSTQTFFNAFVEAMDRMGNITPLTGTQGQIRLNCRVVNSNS
- test_method_notes: competition reverse ELISA: PAP pre-incubated with peptide, residual PAP binding to FcγIIa-coated plate (competitor: immobilized FcγIIa)
No end group written: not given here.
Give just the number in OD 405 nm; leave the unit off.

Worked examples follow.
binder="APPCAWHLGELVWCT (not fully specified; cysteine pairing not given here) [Peptide … (SEQ ID NO:13)]" numeric_result=0.658
binder="APPCAFHLGELVWCT (not fully specified; cysteine pairing not given here) [Peptide … (SEQ ID NO:15)]" numeric_result=0.605
binder="DCAFHLGELVWCT [Peptide … (SEQ ID NO:3)]" numeric_result=0.66
binder="APPDCAWHLGELVWCT [Peptide … (SEQ ID NO:16)]" numeric_result=0.509

// switching to the query binder
What does the record list as OD 405 nm for APPCARHLGELVWCT (not fully specified; cysteine pairing not given here) [Peptide … (SEQ ID NO:14)] ?
0.956
